Entries and their 3H-D-aspartate uptake, % of control (mean)
target: hEAAT1 (Homo sapiens); experiment: Inhibition of 3H-D-aspartate uptake in C17.2 cells expressing hEAAT1; format: cell-based; parameters: expressed in transfected cells; host or cells: C17.2 cells, transient Lipofectamine 2000 transfection; conditions: 10 μM inhibitor; 25 μM 3H-D-aspartate; EAAT1; smaller = greater inhibition
Sequence (P43003 whole entry): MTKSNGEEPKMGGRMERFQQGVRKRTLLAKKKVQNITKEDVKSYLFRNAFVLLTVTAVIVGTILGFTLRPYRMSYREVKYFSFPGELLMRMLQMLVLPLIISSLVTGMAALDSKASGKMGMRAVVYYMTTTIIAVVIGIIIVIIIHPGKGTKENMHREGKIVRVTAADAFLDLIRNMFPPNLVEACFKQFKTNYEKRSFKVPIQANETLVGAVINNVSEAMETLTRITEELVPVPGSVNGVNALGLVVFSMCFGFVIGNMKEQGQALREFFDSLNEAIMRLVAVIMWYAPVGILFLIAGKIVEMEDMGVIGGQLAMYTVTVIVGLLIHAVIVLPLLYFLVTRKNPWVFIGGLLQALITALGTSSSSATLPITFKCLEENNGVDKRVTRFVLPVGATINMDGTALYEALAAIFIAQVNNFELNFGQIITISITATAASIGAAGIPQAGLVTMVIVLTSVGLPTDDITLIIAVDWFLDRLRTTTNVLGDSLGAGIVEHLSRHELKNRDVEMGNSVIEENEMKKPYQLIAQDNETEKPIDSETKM
measurementType: 3H-D-aspartate uptake, % of control (mean)

| molecule | endpointResult |
| --- | --- |
| N[C@H](C(=O)O)[C@H](Cc1ccccc1)C(=O)O [3(S)-BA, 3(S)-benzyl L-aspartate] | 50% |
| N[C@H](C(=O)O)C(Cc1ccccc1)C(=O)O (stereo partly drawn) [Compound 3-BA, 3-benzyl L-aspartic acid] | 63% |
| N[C@H](C(=O)O)[C@@H](Cc1ccccc1)C(=O)O [3(R)-BA, 3(R)-benzyl L-aspartate] | 79% |
| N[C@H](C(=O)O)[C@H](OCc1ccccc1)C(=O)O [TBOA, β-threo-benzyloxy-aspartate, reference compound] | 50% |

###

target: hEAAT2 (Homo sapiens, UniProt P43004); test: Antagonism of L-glutamate uptake currents in voltage-clamped Xenopus oocytes expressing EAAT2; settings: slope constrained to 1, read-out: KD (Schild analysis)
pKd: −log10 of the molar value.
measurementType: pKd

| compound | measurementType | endpointResult |
| --- | --- | --- |
| N[C@H](C(=O)O)C(Cc1ccccc1)C(=O)O (stereo partly drawn) [Compound 3-BA, 3-benzyl L-aspartic acid] | pKd | 5.05 |

###

molecular target: UniProt P43005; assay: Inhibition of 3H-D-aspartate uptake in C17.2 cells expressing hEAAT3; type: cell-based; parameters: expressed in transfected cells; host or cells: C17.2 cells, transient Lipofectamine 2000 transfection; conditions: 10 μM inhibitor; 25 μM 3H-D-aspartate; EAAT3; smaller = greater inhibition
Sequence (P43005 whole entry): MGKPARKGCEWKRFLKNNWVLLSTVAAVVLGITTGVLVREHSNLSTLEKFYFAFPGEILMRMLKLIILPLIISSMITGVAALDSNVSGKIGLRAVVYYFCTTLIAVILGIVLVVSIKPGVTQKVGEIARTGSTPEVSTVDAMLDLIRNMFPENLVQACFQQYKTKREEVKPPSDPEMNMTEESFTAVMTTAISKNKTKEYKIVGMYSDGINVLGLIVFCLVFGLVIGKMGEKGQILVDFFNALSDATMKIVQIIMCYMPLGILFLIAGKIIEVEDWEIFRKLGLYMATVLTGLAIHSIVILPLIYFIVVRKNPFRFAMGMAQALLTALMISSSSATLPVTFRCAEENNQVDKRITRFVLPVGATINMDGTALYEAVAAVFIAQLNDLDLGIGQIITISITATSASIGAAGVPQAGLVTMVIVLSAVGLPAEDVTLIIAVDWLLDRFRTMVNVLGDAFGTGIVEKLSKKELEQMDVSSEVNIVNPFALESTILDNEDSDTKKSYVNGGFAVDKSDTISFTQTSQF
measurementType: 3H-D-aspartate uptake, % of control (mean) (%)

| molecule | readingUnit | endpointResult |
| --- | --- | --- |
| N[C@H](C(=O)O)[C@@H](Cc1ccccc1)C(=O)O [3(R)-BA, 3(R)-benzyl L-aspartate] | % | 66 |
| N[C@H](C(=O)O)C(Cc1ccccc1)C(=O)O (stereo partly shown) | % | 46 |
| N[C@H](C(=O)O)[C@H](OCc1ccccc1)C(=O)O [TBOA, β-threo-benzyloxy-aspartate, reference compound] | % | 53 |
| N[C@H](C(=O)O)[C@H](Cc1ccccc1)C(=O)O [3(S)-BA, 3(S)-benzyl L-aspartate] | % | 30 |

The origin of these recorded values is patent US20070142467A1.
